Ref: patent US8785486B2

Target: human mGluR2 receptor (Homo sapiens, UniProt Q14416)
Construct: expressed in transfected cells; host or cells: CHO cells
Sequence (Q14416 19-872): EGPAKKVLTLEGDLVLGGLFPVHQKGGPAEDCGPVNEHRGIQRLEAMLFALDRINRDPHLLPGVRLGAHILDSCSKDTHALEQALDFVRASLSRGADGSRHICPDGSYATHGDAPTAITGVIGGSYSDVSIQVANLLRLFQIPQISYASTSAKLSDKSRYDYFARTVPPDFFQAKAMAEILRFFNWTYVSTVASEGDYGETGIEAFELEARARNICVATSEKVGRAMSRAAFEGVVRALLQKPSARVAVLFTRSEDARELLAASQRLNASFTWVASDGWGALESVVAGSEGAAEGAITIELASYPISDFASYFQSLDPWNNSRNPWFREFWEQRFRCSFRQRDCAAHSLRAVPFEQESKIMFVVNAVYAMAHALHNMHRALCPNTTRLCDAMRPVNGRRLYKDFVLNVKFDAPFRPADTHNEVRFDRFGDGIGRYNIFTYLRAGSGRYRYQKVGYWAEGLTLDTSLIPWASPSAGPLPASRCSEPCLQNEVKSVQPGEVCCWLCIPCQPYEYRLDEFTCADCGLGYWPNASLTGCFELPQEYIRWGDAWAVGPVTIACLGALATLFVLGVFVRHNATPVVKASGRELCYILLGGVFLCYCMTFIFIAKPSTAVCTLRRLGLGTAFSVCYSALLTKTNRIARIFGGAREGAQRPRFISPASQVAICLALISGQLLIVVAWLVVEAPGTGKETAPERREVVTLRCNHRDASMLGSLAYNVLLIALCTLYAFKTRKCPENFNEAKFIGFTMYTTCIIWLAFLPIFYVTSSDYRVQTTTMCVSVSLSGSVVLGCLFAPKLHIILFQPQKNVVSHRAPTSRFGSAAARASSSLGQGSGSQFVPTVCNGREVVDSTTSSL
Assay: [35S]GTPγS binding assay (PAM assay) using membranes from cells transfected with the human mGluR2 receptor
Assay type: biochemical
Conditions: membranes of CHO cells with human mGluR2; glutamate at predetermined EC25 concentration; averages of duplicate values of 11-concentration response curves; read-out: GTPγS - hR2 PAM pEC50 (converted)
measured attribute: EC50 (nM)

Some solved entries appear below for comparison.
N#Cc1c(-c2ccc(Sc3ccccc3)cc2)ccn2c(CC(F)(F)F)cnc12 [Example 71]	182
N#Cc1c(N2CCC(c3ccccc3)CC2)ccn2c(CC(F)(F)F)cnc12 [Example 3]	123
CCCc1cnc2c(C#N)c(-c3ccc(Oc4ccnc(C)c4)cc3)ccn12 [Example 11]	427
CC(C)(O)c1ccc(C2CCN(c3ccn4c(CC(F)(F)F)cnc4c3C#N)CC2)cc1 [Example 54]	240
N#Cc1c(N2CCC(c3ccccc3)CC2)ccn2c(CCC3CC3)cnc12 [Example 48]	93.3

(P) N#Cc1c(N2CCC(c3ccccc3)CC2)ccn2c(-c3ccc(F)cc3F)cnc12 [Example 47]
(Q) Cc1cc(Oc2ccc(-c3ccn4c(CC(F)(F)F)cnc4c3C#N)c(F)c2)ccn1 [Example 4]
Form: Entry with minimum EC50 (choose one): P / Q Answer by stating the label of the chosen item.
P

(P) N#Cc1c(N2CCC(c3ccccc3)CC2)ccn2c(C(F)(F)F)cnc12 [Example 29]
(Q) FC(F)(F)Cc1cnc2c(Cl)c(N3CCC(F)(c4ccccc4)CC3)ccn12 [Example 50]
Form: Entry with minimum EC50 (choose one): P / Q Answer by stating the label of the chosen item.
Q

----------
Biological target: human mGluR2 receptor (Homo sapiens)
Construct: expressed in transfected cells; host or cells: CHO cells
Test: [35S]GTPγS binding assay (PAM assay) using membranes from cells transfected with the human mGluR2 receptor
Assay type: biochemical
Conditions: membranes of CHO cells with human mGluR2; glutamate at predetermined EC25 concentration; averages of duplicate values of 11-concentration response curves
measured attribute: GTPγS - hR2 PAM pEC50

N#Cc1c(-c2ccc(NC3CCOCC3)c(Cl)c2)ccn2c(CC(F)(F)F)cnc12	6.15
CC(C)(C)c1ccc(-c2ccn3c(CC(F)(F)F)cnc3c2C#N)cc1	6.35
N#Cc1c(-c2ccc(NC3CC3)c(Cl)c2)ccn2c(CC(F)(F)F)cnc12	6.85
CCc1cnc2c(C#N)c(N3CCN(c4nc(C)cc(C)n4)CC3)ccn12	5.64
N#Cc1c(-c2ccc(OCc3ccccc3)cc2)ccn2c(CC(F)(F)F)cnc12	6.80

----------
Molecular target: human mGluR2 receptor (Homo sapiens)
Construct: expressed in transfected cells; host or cells: CHO cells
Experiment: [35S]GTPγS binding assay (PAM assay) using membranes from cells transfected with the human mGluR2 receptor
Type: biochemical
Settings: membranes of CHO cells with human mGluR2; glutamate at predetermined EC25 concentration; averages of duplicate values of 11-concentration response curves; read-out: GTPγS - hR2 PAM pEC50 (converted)
measured attribute: EC50 (nM)

Some solved entries appear below for comparison.
N#Cc1c(N2CCC(c3ccc(N4CCOCC4)cc3)CC2)ccn2c(CC(F)(F)F)cnc12	479
C[C@]1(O)CC[C@@H](Oc2ccc(-c3ccn4c(CC(F)(F)F)cnc4c3C#N)cc2Cl)CC1	1050
CC(O)c1ccc(C2CCN(c3ccn4c(CC(F)(F)F)cnc4c3C#N)CC2)cc1 (centres unmarked)	372
C[C@]1(O)CC[C@H](Nc2ccc(-c3ccn4c(CC(F)(F)F)cnc4c3C#N)cc2Cl)CC1	174
N#Cc1c(CN2CCN(c3ccc(F)cc3F)CC2)ccn2c(CC(F)(F)F)cnc12	1380
CC(C)(O)c1ccc(Oc2ccc(-c3ccn4c(CC(F)(F)F)cnc4c3C#N)cc2)cc1	44.7
FC(F)(F)Cc1cnc2c(Cl)c(-c3ccc(N4CCCCC4)cc3)ccn12	275
Cc1cc(Oc2ccc(-c3ccn4c(CCCC(F)(F)F)cnc4c3C#N)cc2F)ccn1	1050
N#Cc1c(N2CCC(c3ccccc3F)CC2)ccn2c(CC(F)(F)F)cnc12	81.3
N#Cc1c(-c2ccc(OC3CCCC3)c(Cl)c2)ccn2c(CC(F)(F)F)cnc12	302

(a) CCc1cnc2c(C#N)c(N3CCC(O)(c4ccccc4)CC3)ccn12
(b) N#Cc1c(N2CCC(c3ccccc3)CC2)ccn2c(CCCC(F)(F)F)cnc12
Form: Entry with minimum EC50 (choose one): a / b Answer by stating the label of the chosen item.
b
(b: 132 nM, a: 1000 nM)

(1) N#Cc1c(-c2ccc(O[C@H]3CC[C@H](O)CC3)c(Cl)c2)ccn2c(CC(F)(F)F)cnc12
(2) N#Cc1c(-c2ccc(COc3ccccc3F)cc2)ccn2c(CC(F)(F)F)cnc12
(3) FC(F)(F)Cc1cnc2c(Cl)c(N3CCC4(CC3)OCc3ccccc34)ccn12
Ordering criterion: EC50; begin with the maximum. Present the labels in the sequence the task asks for.
1, 3, 2
(1: 851 nM, 3: 282 nM, 2: 155 nM)
